target: Strictosidine beta-glucosidase (Catharanthus roseus); assay: Ratio of relative Vmax to K0.5 of Catharanthus roseus strictosidine glucosidase
parameter: Ratio (min⁻¹)
Use min⁻¹ as the unit, but write only the number.

// known answers, use as guide
C=C[C@H]1[C@H](O[C@@H]2O[C@H](CO)[C@@H](O)[C@H](O)[C@H]2O)OC=C(C(=O)OC)[C@H]1C[C@@H]1NCCc2c1[nH]c1cc(C)ccc21: 0.5
C=C[C@H]1[C@H](O[C@@H]2O[C@H](CO)[C@@H](O)[C@H](O)[C@H]2O)OC=C(C(=O)OC)[C@H]1C[C@@H]1NCCc2c1[nH]c1ccc(F)cc21: 0.7

What does the record list as Ratio for C=C[C@H]1[C@H](O[C@@H]2O[C@H](CO)[C@@H](O)[C@H](O)[C@H]2O)OC=C(C(=O)OC)[C@H]1C[C@@H]1NCCc2c1[nH]c1cc(F)ccc21 ? 0.7

Values compiled from ChEMBL document CHEMBL1145552.
